# target_entity: rCB1 (Rattus norvegicus)
# Sequence (P20272 whole entry): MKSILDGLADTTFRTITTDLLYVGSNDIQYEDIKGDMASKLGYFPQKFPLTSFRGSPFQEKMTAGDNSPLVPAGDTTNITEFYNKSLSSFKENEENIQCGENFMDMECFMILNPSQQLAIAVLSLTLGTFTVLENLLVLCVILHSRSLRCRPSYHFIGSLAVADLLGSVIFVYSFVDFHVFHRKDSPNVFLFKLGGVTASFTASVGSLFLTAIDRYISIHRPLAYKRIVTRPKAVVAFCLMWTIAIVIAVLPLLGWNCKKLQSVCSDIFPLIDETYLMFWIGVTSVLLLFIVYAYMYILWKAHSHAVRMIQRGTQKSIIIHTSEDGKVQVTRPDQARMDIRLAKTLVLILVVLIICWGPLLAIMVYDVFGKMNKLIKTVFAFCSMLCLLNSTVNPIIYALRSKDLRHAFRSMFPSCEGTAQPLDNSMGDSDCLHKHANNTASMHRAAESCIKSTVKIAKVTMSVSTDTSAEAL
# test_summary: Radioligand binding
# study_conditions: CB1 (Ki ± SD), cis photoisomer (irradiated with 366 nm UV light); rat brain membranes; 0.6 nM [3H]CP55940
attribute_measured: Ki (nM)
# output: bare number, implied unit nM

Task item: Fill in the blank: the reported Ki of Cc1c(C(=O)NCc2ccc(/N=N/c3ccc4c(c3)COC4)cc2)nn(-c2ccc(Cl)cc2Cl)c1-c1ccc(Cl)cc1 [16d] is ____.
Reply: 221

Task item: Likewise for Cc1c(/N=N/c2cccc(Cl)c2Cl)nn(-c2ccc(Cl)cc2Cl)c1-c1ccc(Cl)cc1 [14b] ?
Reply: 195

Task item: Likewise for Cc1c(C(=O)NCc2ccc(/N=N/c3ccccc3)cc2)nn(-c2ccc(Cl)cc2Cl)c1-c1ccc(Cl)cc1 [16a] ?
Reply: 29

Task item: Likewise for Cc1c(C(=O)NN2CCCCC2)nn(-c2ccc(Cl)cc2Cl)c1/N=N/c1ccccc1 ?
Reply: 461
